Value source: patent US20180008587A1

- target_or_system: wild-type Androgen Receptor (AR-wt) (Homo sapiens)
- Construct: expressed in transfected cells; host or cells: LNCaP (LNCaP AR (cs))
- Sequence (P10275 whole entry): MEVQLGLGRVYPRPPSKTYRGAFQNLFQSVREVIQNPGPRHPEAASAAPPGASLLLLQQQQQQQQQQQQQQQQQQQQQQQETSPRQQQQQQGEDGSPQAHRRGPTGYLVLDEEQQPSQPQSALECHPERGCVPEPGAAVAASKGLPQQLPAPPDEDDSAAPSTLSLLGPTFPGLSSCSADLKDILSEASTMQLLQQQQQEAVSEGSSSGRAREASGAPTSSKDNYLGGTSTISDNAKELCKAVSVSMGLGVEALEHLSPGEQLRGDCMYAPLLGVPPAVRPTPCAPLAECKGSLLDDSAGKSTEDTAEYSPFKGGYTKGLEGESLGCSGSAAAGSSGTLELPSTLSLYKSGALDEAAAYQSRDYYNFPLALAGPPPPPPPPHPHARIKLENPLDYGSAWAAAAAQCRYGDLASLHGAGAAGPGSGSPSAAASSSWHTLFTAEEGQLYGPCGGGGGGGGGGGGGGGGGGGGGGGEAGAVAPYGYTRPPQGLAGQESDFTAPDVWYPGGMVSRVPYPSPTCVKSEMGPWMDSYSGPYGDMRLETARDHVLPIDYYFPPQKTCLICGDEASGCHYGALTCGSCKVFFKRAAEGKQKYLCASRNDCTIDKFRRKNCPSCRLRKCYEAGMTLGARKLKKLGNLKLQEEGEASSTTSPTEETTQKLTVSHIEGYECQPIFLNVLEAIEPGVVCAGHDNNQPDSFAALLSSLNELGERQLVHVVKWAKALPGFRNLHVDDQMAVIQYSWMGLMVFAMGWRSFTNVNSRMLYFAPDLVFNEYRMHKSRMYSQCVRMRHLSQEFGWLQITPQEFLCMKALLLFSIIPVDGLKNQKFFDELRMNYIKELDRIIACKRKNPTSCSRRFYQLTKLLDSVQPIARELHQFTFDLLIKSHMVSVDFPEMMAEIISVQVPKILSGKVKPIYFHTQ
- assay_name: LNCaP-AR-wt ANT reporter assay (ARE firefly luciferase, antagonist mode)
- Format: cell-based
- conditions: antagonist mode, 400 pM R-1881 challenge; −Log10(IC50 [Molar]); read-out: LNCaP-AR-wt ANT pIC50 (converted)
hey, just use met if measured IC50 is less than 0.8 µM, otherwise not met

>>> df
                                smiles_repr  category_label
0  CCOC(=O)CNC(=O)c1ccc(N2C(=S)N(c3cnc(C#N)c(C(F)(F)F)c3)C(=O)C23CCC3)cc1F             met

Prompt: # check: IC50 < 0.8 µM for N#Cc1ncc(N2C(=O)C3(CCC3)N(c3cccc(Oc4ccccc4)c3)C2=S)cc1C(F)(F)F
Response: not met

Prompt: Does the reported IC50 of CN1CCC(Oc2ccc(N3C(=S)N(c4cnc(C#N)c(C(F)(F)F)c4)C(=O)C34CCC4)cc2F)CC1 stay below 0.8 µM?
Response: met

Prompt: Determine if Cc1ccc(N2C(=S)N(c3cnc(C#N)c(C)c3)C(=O)C23CCC3)cc1 shows IC50 strictly lower than 0.8 µM.
Response: met

Prompt: For this compound, is IC50 lower than 0.8 µM? N#Cc1ncc(N2C(=O)C3(CCC3)N(c3ccc(OCCc4ncccn4)c(F)c3)C2=S)cc1C(F)(F)F
Response: not met

Prompt: Is IC50 of CN(CCCNC(=O)c1ccc(N2C(=S)N(c3cnc(C#N)c(C(F)(F)F)c3)C(=O)C23CCC3)cc1F)C1CCCC1 strictly below 0.8 µM?
Response: met

Prompt: Consider the compound Cc1cc(N2C(=O)C3(CCC3)N(c3ccc(OC4CCN(C)CC4)cc3)C2=S)cnc1C#N . Is its IC50 strictly less than 0.8 µM?
Response: not met

Prompt: Dear reviewer, please state whether N#Cc1ncc(N2C(=O)C3(CCC3)N(c3ccc(C(=O)NCCc4cccnc4)c(F)c3)C2=S)cc1C(F)(F)F has IC50 strictly beneath 0.8 µM.
Response: met

Prompt: Is it true that IC50 reported for CCOC(=O)CCCNC(=O)c1ccc(N2C(=S)N(c3cnc(C#N)c(C(F)(F)F)c3)C(=O)C23CCC3)cc1F is less than 0.8 µM?
Response: met

Prompt: In plain terms, does Cc1cc(N2C(=O)C3(CCC3)N(c3ccc(OCCc4ccccn4)c(F)c3)C2=S)cnc1C#N come in under 0.8 µM for IC50?
Response: met

Prompt: Consider CN1CCN(CCNC(=O)c2ccc(N3C(=S)N(c4cnc(C#N)c(C(F)(F)F)c4)C(=O)C34CCC4)cc2F)CC1 . Does its IC50 lie strictly below 0.8 µM?
Response: not met

Prompt: I'd appreciate it if you could check whether N#Cc1ncc(N2C(=O)C3(CCC3)N(c3ccc(OC4CCNCC4)cc3)C2=S)cc1C(F)(F)F has IC50 smaller than 0.8 µM.
Response: met

Prompt: Lab note: IC50 threshold 0.8 µM. Does this compound come in strictly under it? N#Cc1ncc(N2C(=O)C3(CCC3)N(c3ccc(C(=O)NCCc4ccncc4)c(F)c3)C2=S)cc1C(F)(F)F
Response: met

Prompt: State whether 0.8 µM exceeds IC50 recorded for CC(C)CCNC(=O)c1ccc(N2C(=S)N(c3cnc(C#N)c(C(F)(F)F)c3)C(=O)C23CCC3)cc1F .
Response: not met

Prompt: Please check: IC50 for N#Cc1ncc(N2C(=O)C3(CCC3)N(c3ccc(C(=O)NCCc4ccccn4)c(F)c3)C2=S)cc1C(F)(F)F , strictly under 0.8 µM or not?
Response: met

Prompt: A record lists Cc1cc(N2C(=O)C3(CCC3)N(c3ccc(C(=O)Nc4nccs4)c(F)c3)C2=S)cnc1C#N . Is its IC50 below 0.8 µM?
Response: met

Prompt: Does CNS(=O)(=O)c1ccc(N2C(=S)N(c3cnc(C#N)c(C(F)(F)F)c3)C(=O)C23CCC3)cc1 have IC50 strictly under 0.8 µM?
Response: not met

Prompt: In plain terms, does Cc1cc(N2C(=O)C3(CCC3)N(c3ccc(C(=O)NCc4cccs4)c(F)c3)C2=S)cnc1C#N come in under 0.8 µM for IC50?
Response: not met

Prompt: Threshold test, IC50 < 0.8 µM: COc1cc(F)ccc1N1C(=S)N(c2cnc(C#N)c(C(F)(F)F)c2)C(=O)C12CCC2
Response: met

Prompt: For this compound, is IC50 lower than 0.8 µM? CNC(=O)c1ccc(N2C(=S)N(c3cnc(C#N)c(C)c3)C(=O)C23CCC3)cc1F
Response: met

Prompt: Find out if reported IC50 for N#Cc1ncc(N2C(=O)C3(CCC3)N(c3ccc4[nH]ncc4c3)C2=S)cc1C(F)(F)F is less than 0.8 µM
Response: met
